These entries and their values trace back to the supplement of paper PMC9262897.

tested on: E. coli TESEC Mtb Alr; test: growth (OD600 after 10 h); higher = more growth (less inhibition); settings: arabinose 10000000 nM; compound 0.1 mM; raw OD600 reference: median of DMSO wells 0.146, cell-free background 0.041
Here, each record is paired with measured growth data.
MEASUREMENT LABEL: growth

1. COC(=O)[C@H]1[C@H]2C[C@@H]3c4[nH]c5cc(OC)ccc5c4CCN3C[C@H]2C[C@@H](OC(=O)c2cc(OC)c(OC)c(OC)c2)[C@@H]1OC :: 0.214
2. Cc1ccc(S(=O)(=O)NC(=O)NN2CC3CCCC3C2)cc1 (stereo not drawn) [Gliclazide] :: 0.177
3. N=C(N)N/N=C/c1c(Cl)cccc1Cl [Guanabenz acetate] :: 0.168

----------
test system: E. coli TESEC Mtb DapB; assay: growth (OD600 after 10 h); higher = more growth (less inhibition); settings: arabinose induction (level): High; compound 0.1 mM; raw OD600 reference: median of DMSO wells […], cell-free background 0.041
Structures can show the parent of a compound that is named as a salt.
MEASUREMENT LABEL: growth

1) CC(C)(Oc1ccc(C2CC2(Cl)Cl)cc1)C(=O)O (stereo not drawn) [Ciprofibrate] :: 0.203
2) Oc1ccc(OCc2ccccc2)cc1 :: 0.2
3) CN1CCCN=C1/C=C/c1cccs1 [Pyrantel tartrate] :: 0.197

----------
Here, each record is paired with measured growth data.
system: E. coli TESEC Mtb Alr; assay: growth (OD600 after 10 h); higher = more growth (less inhibition); conditions: arabinose 10000 nM; compound 0.1 mM; raw OD600 reference: median of DMSO wells 0.264, cell-free background 0.041
Structures can show the parent of a compound that is named as a salt.
MEASUREMENT LABEL: growth

1) N#CC(c1ccc(Cl)cc1)c1c(Cl)cc(-n2ncc(=O)[nH]c2=O)cc1Cl (stereo not drawn) :: 0.0402
2) C=CC1=C(C(=O)O)N2C(=O)[C@@H](NC(=O)/C(=N\O)c3csc(N)n3)[C@H]2SC1 :: 0.0401
3) CC(C)Oc1ccc2c(=O)c(-c3ccccc3)coc2c1 :: 0.231
4) CCN1CCC[C@H]1CNC(=O)c1c(OC)ccc(Br)c1OC [Remoxipride Hydrochloride] :: 0.259
5) NC(=O)N1c2ccccc2C=Cc2ccccc21 [Carbamazepine] :: 0.239
6) Cc1ccccc1OCC(O)CO (stereo not drawn) :: 0.261
7) OC(CCN1CCCC1)(c1ccccc1)C1CCCCC1 (stereo not drawn) [Procyclidine hydrochloride] :: 0.266
8) Cc1c(OCC(F)(F)F)ccnc1C[S+]([O-])c1nc2ccccc2[nH]1 (stereo not drawn) :: 0.242
9) N=C(N)NCC1COC2(CCCCC2)O1 (stereo not drawn) [Guanadrel sulfate] :: 0.258
10) C[C@]12CC[C@H]3[C@@H](CCC4=CC(=O)CC[C@@]43C)[C@@H]1CC[C@@H]2C(=O)CO :: 0.152
11) C=Cc1c(C)c2cc3nc(cc4[nH]c(cc5nc(cc1[nH]2)C(C)=C5CCC(=O)O)c(CCC(=O)OC)c4C)[C@@]1(C)C3=CC=C(C(=O)OC)C1C(=O)OC.C=Cc1c(C)c2cc3nc(cc4[nH]c(cc5nc(cc1[nH]2)C(C)=C5CCC(=O)OC)c(CCC(=O)O)c4C)[C@@]1(C)C3=CC=C(C(=O)OC)C1C(=O)OC (stereo partly drawn) :: 0.289
12) CS(=O)(=O)c1ccc([C@@H](O)[C@@H](CF)NC(=O)C(Cl)Cl)cc1 :: 0.0395
13) CC(C)(C)CC(C)(C)c1ccc(OCCOCC[N+](C)(C)Cc2ccccc2)cc1 [Benzethonium chloride] :: 0.0413
14) Cc1ncc([N+](=O)[O-])n1CCO :: 0.264
15) Nc1nc(N)nc(-c2cc(Cl)ccc2Cl)n1 [Irsogladine maleate] :: 0.239
16) CN1CCC[C@@H]1CCO[C@](C)(c1ccccc1)c1ccc(Cl)cc1 [Clemastine fumarate] :: 0.0403
17) CO/N=C(\C(=O)N[C@@H]1C(=O)N2C(C(=O)O)=C(COC(N)=O)CS[C@H]12)c1ccco1 [Cefuroxime sodium salt] :: 0.0396
18) C[C@@H]1C[C@H]2[C@@H]3C[C@H](F)C4=CC(=O)C=C[C@]4(C)[C@@]3(Cl)[C@@H](O)C[C@]2(C)[C@H]1C(=O)COC(=O)C(C)(C)C [Clocortolone pivalate] :: 0.29

----------
tested on: E. coli TESEC Mtb Alr; assay: growth (OD600 after 10 h); higher = more growth (less inhibition); details: arabinose 1000 nM; compound 0.1 mM; raw OD600 reference: median of DMSO wells 0.294, cell-free background 0.041
Structures can show the parent of a compound that is named as a salt.
MEASUREMENT LABEL: growth

1. COc1ccc(-c2ccc3cc(C(=O)O)ccc3c2)cc1C12CC3CC(CC(C3)C1)C2 :: 0.282
2. Nc1nc(O)c2ncn(CCC(CO)CO)c2n1 :: 0.31
3. CC(=O)Oc1cc(C(C)C)c(OCCN(C)C)cc1C [Moxisylyte hydrochoride] :: 0.245
4. O=C(CCCN1CCC(O)(c2ccc(Cl)cc2)CC1)c1ccc(F)cc1 :: 0.265
5. CC(C)(C)NC[C@H](O)COc1ccccc1C1CCCC1 [Penbutolol sulfate] :: 0.225
6. CO[C@H]1/C=C/O[C@@]2(C)Oc3c(C)c(O)c4c(O)c(c(/C=N/N5CCN(C)CC5)c(O)c4c3C2=O)NC(=O)/C(C)=C\C=C\[C@H](C)[C@H](O)[C@@H](C)[C@@H](O)[C@@H](C)[C@H](OC(C)=O)[C@@H]1C :: 0.0442
7. COC(=O)Nc1nc2cc(C(=O)c3cccs3)ccc2[nH]1 :: 0.292
8. Cc1cccc(C)c1OCC(C)N (centres undefined) [Mexiletine hydrochloride] :: 0.276
9. CC(=O)O[C@]1(C(C)=O)CC[C@H]2[C@@H]3C=C(Cl)C4=CC(=O)CC[C@]4(C)[C@H]3CC[C@@]21C [Chlormadinone acetate] :: 0.156

----------
system: E. coli TESEC Mtb Alr; test: growth (OD600 after 10 h); higher = more growth (less inhibition); settings: arabinose 100 nM; compound 0.1 mM; raw OD600 reference: median of DMSO wells 0.413, cell-free background 0.052
Structures can show the parent of a compound that is named as a salt.
MEASUREMENT LABEL: growth

1. C#C[C@]1(O)CC[C@H]2[C@@H]3CCC4=Cc5oncc5C[C@]4(C)[C@H]3CC[C@@]21C :: 0.402
2. COc1ccc(C2CNC(=O)C2)cc1OC1CCCC1 (stereo not given) :: 0.4
3. CC(=O)OCC(=O)NCCCOc1cccc(CN2CCCCC2)c1 [Roxatidine Acetate HCl] :: 0.408
4. Cn1c(=O)c2c(ncn2CC(=O)O)n(C)c1=O :: 0.408
5. Cc1ccccc1C(OCCN(C)C)c1ccccc1 (stereo not given) [Orphenadrine hydrochloride] :: 0.412

----------
tested on: E. coli TESEC Alr+ wild-type control; assay: growth (OD600 after 10 h); higher = more growth (less inhibition); settings: compound 0.1 mM; raw OD600 reference: median of DMSO wells 0.241, cell-free background 0.041
Counter-ions that a name gives are not always drawn.
Classification field: enter criterion met for growth values not below 0.2, criterion not met for values below it.

1) N=C(N=C(N)N)N1CCOCC1 [Moroxidine hydrochloride] :: criterion met
2) CC(C(=O)O)c1ccc(-c2ccccc2)c(F)c1 (stereo not drawn) [Flurbiprofen] :: criterion not met
3) CCN1CCCC(OC(=O)C(c2ccccc2)c2ccccc2)C1 (stereo not drawn) [Piperidolate hydrochloride] :: criterion not met
4) C[C@]12CCC(=O)C=C1CC[C@@H]1[C@@H]2[C@@H](O)C[C@@]2(C)[C@H]1CC[C@]2(O)C(=O)CO [Hydrocortisone base] :: criterion met
5) CC(N)C12CC3CC(CC(C3)C1)C2 (stereo not drawn) [Rimantadine Hydrochloride] :: criterion met
6) CC(C)NNC(=O)c1ccncc1 [Iproniazide phosphate] :: criterion met
7) Cc1cc(O)c(C(=O)N[C@@H](C(=O)N[C@@H]2C(=O)N3C(C(=O)O)=C(CSc4nnnn4C)CS[C@H]23)c2ccc(O)cc2)cn1 [Cefpiramide] :: criterion met
8) CC(C)(C)NCC(O)COc1cccc2c1CCC(=O)N2 (stereo not drawn) [Carteolol hydrochloride] :: criterion met
9) C[C@]12C[C@H](O)[C@H]3[C@@H](CCC4=CC(=O)CC[C@@]43C)[C@@H]1CC[C@@H]2C(=O)CO [Corticosterone] :: criterion not met
10) CC(=O)N(CC(O)CO)c1c(I)c(C(=O)NCC(O)CO)c(I)c(C(=O)NCC(O)CO)c1I (stereo not drawn) [Iohexol] :: criterion met
11) N[C@H]1CONC1=O [(S)-(-)-Cycloserine] :: criterion met
12) Fc1ccc(C(c2ccc(F)cc2)N2CCN(C/C=C/c3ccccc3)CC2)cc1 [Flunarizine dihydrochloride] :: criterion not met
13) O=C(O)CNC(=O)C(CS)Cc1ccccc1 (stereo not drawn) [Thiorphan] :: criterion met
14) CN/C(=N\CCSCc1nc[nH]c1C)NC#N [Cimetidine] :: criterion met
15) CCN(CC)C(=S)SSC(=S)N(CC)CC [Disulfiram] :: criterion met
16) Nc1c2c(nc3ccccc13)CCCC2 [Tacrine hydrochloride] :: criterion met
17) NC(=O)OCC(O)COc1ccc(Cl)cc1 (stereo not drawn) [Chlorphensin carbamate] :: criterion met
18) N=C(N)c1ccc(OCCCCCOc2ccc(C(=N)N)cc2)cc1 [Pentamidine isethionate] :: criterion not met
19) CC/C(=C(/CC)c1ccc(O)cc1)c1ccc(O)cc1 [Diethylstilbestrol] :: criterion not met
20) COC(=O)C1=C(C)NC(C)=C(C(=O)OCCN(C)Cc2ccccc2)C1c1cccc([N+](=O)[O-])c1 (stereo not drawn) [Nicardipine hydrochloride] :: criterion not met
21) CC1Cc2ccccc2N1NC(=O)c1ccc(Cl)c(S(N)(=O)=O)c1 (stereo not drawn) [Indapamide] :: criterion met
